meta.source: paper PMC5540273

- System: NEK4
- Test context: concentration: 1 μM,replicates: in singlicate; n = 1;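 note: KINOMEscan kinase panel screen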
Form field: %Inh (one value per entry).
Quantity: %Inh (%)

In [3]: df
Out[3]:
                                    compound  observed_measurement
 0  CCNCC(Cc1ccccc1)NC(=O)c1cc(Br)c(-c2ccnc3[nH]ccc23)s1.Cl.Cl (stereo not drawn)                     0
 1  CC(C)c1nc(-c2cccc(NS(=O)(=O)c3ccccc3)c2)c(-c2ccnc(Nc3ccc4c(c3)CN(C)CC4)n2)s1                    18
 2  COc1cc2c(Nc3ccc(NC(=O)c4ccccc4)cc3)ncnc2cc1OCCCN1CCOCC1                    22
 3  COc1ccc(Nc2nccc(N3CCC(NC(=O)c4cccc(C#N)c4)C3)n2)cc1 (stereo not drawn)                     3
 4     O=C(Nc1n[nH]c2cc(-c3ccco3)ccc12)C1CC1                     7
 5        NC(=O)Nc1sc(-c2ccc(F)cc2)cc1C(N)=O                    19
 6  O=C(NOCC1CC1)c1cc(Br)c(F)c(F)c1Nc1ccc(I)cc1Cl                     0
 7  Cl.Cl.NC[C@H](CC1CCCCC1)NC(=O)c1ccc(-c2ccnc3[nH]ccc23)s1                    14
 8  CC(=O)Nc1nc2cnc(Nc3cc(NC(=O)c4cccc(CC(C)(C)C#N)c4)ccc3C)nc2s1                     0
 9  Cn1ccc2ncnc(Oc3ccc(NC(=O)Nc4cncc(C(F)(F)F)c4)c(Cl)c3)c21                     0
10  O=C(NCC1CC1)c1ccc(-c2cc(C(=O)NC3CC3)ccc2F)cc1                     0
11  O=C(Nc1cccc(Oc2ccc3nccn3n2)c1)Nc1cccc(C(F)(F)F)c1                     0
12  C[C@@H]1CCN(C(=O)N2CCCC2)C[C@@H]1N(C)c1ncnc2[nH]ccc12                     5
13  FC(F)(F)c1cc(Br)cc(Nc2nccc(-c3cnn4ncccc34)n2)c1                     2
14  CCOC(=O)N1CCC(n2cnc(-c3ccc(F)cc3)c2-c2ccnc(N)n2)CC1                    15
15   CC(=O)c1c(-c2ccncc2)[nH]c(-c2ccncc2)c1C                     4
16  Cc1n[nH]c2cc(Nc3ccnc(Nc4cccc(CN5CCOCC5)c4)n3)ccc12                     0
17  Cc1ccc(Nc2ccnc(Nc3ccc4c(c3)CS(=O)(=O)C4)n2)cc1O.Cl                     3

* * *

- Tested on: ASK1
- Construct: gene MAP3K5
- Test context: concentration: 1 μM,replicates: in singlicate; n = 1
# %Inh values compiled below
Quantity: %Inh (%)

>>> print(df.to_string())
                            chemical_string  quantity  observed_measurement
0  O=C(Nc1cccc(Oc2ccc3nccn3n2)c1)Nc1cccc(C(F)(F)F)c1      %Inh                     0
1  COc1cc2c(Nc3ccc(NC(=O)c4ccccc4)cc3)ncnc2cc1OCCCN1CCOCC1      %Inh                     0
2  O=C(Nc1ccc(Oc2ccc3nc(NC(=O)C4CC4)cn3n2)c(F)c1)c1cccn(-c2ccccc2)c1=O      %Inh                     3
3  COC(=O)Nc1nc2cc(Oc3ccc(NC(=O)Nc4cc(C(F)(F)F)ccc4Cl)cc3)ccc2[nH]1.Cl      %Inh                    11
4  CS(=O)(=O)c1cccc(CNc2nc(Nc3ccc4c(c3)[C@@H]3C[C@@H]4CNC3=O)ncc2C(F)(F)F)c1      %Inh                     0

* * *

- Tested on: CDC2L5
- Construct: gene CDK13
- Test context: concentration: 1 μM,replicates: in singlicate; n = 1
A collection of molecules and their measured %Inh
Quantity: %Inh (%)

>>> print(df.to_string())
                                   molecule  quantity  observed_measurement
0  O=C(Nc1ccc(Oc2ccc3nc(NC(=O)C4CC4)cn3n2)c(F)c1)c1cccn(-c2ccccc2)c1=O      %Inh                     0
1  C[C@@H](Oc1cc(-n2cnc3cc(-c4cnn(C)c4)ccc32)sc1C(N)=O)c1ccccc1Cl [GSK580432]      %Inh                     0
2  CC(C(=O)NC1CCN(c2ccnc(Nc3ccc(F)cc3)n2)C1)c1ccc(Cl)cc1 (stereo not drawn) [GSK1379713]      %Inh                     0

* * *

- System: JAK1(JH2domain-pseudokinase)
- Test context: concentration: 1 μM,replicates: in singlicate; n = 1
This section presents molecules with their documented %Inh values.
Quantity: %Inh (%)

                                   molecule  observed_measurement
0  COc1cc(Nc2nccc(N3CCC(NC(=O)c4cccc(C#N)c4)C3)n2)cc(OC)c1OC (stereo not drawn)                     2
1  CC(C)S(=O)(=O)N1CCN(Cc2ccc3c(c2)nc(NC(=O)c2ccsc2)n3C[C@H](O)c2ccccc2)CC1                     0
2  CCOC(=O)N1CCC(n2cnc(-c3ccc(F)cc3)c2-c2ccnc(N)n2)CC1                    42

* * *

- System: MERTK
- Test context: concentration: 1 μM,replicates: in singlicate; n = 1
Classification by %Inh | ranges: band A = under 20%, band B = from 20% up to 80%, band C = 80% and over

>>> df
                                    compound     cat
 0  Cn1ccc2ncnc(Oc3ccc(NC(=O)Nc4ccnc(C(F)(F)F)c4)c(Cl)c3)c21  band B
 1  CS(=O)(=O)Nc1ccc(-c2ccnc3[nH]ccc23)cc1 [GSK993273]  band B
 2  CC(C)c1nc(-c2cccc(NS(=O)(=O)c3ccccc3)c2)c(-c2ccnc(Nc3ccc4c(c3)CN(C)CC4)n2)s1 [GSK1649598]  band B
 3  O=C(Nc1cccc(C(F)(F)F)c1)c1cccc(Oc2ccc3nccn3n2)c1  band A
 4             O=C1NCCc2[nH]c(-c3ccncc3)cc21  band A
 5  CCOC(=O)N1CCC(n2cnc(-c3ccc(F)cc3)c2-c2ccnc(N)n2)CC1 [SB-219952]  band B
 6  Cc1ccc(Nc2ccnc(Nc3ccc4c(c3)CS(=O)(=O)C4)n2)cc1O.Cl [GW579362]  band C
 7  Cc1n[nH]c2cc(Nc3ccnc(Nc4cccc(CN5CCOCC5)c4)n3)ccc12 [GW682569]  band C
 8  Cl.c1ccc(Oc2ccc(Nc3ccnc4cc(-c5ccc(CN6CCNCC6)o5)ccc34)cc2)nc1 [GW567142]  band A
 9  c1ccc(Oc2ccc(Nc3ccnc4ccc(-c5ccccn5)cc34)cc2)cc1 [GW407034]  band A
10  CN(c1ccccc1CNc1nc(Nc2ccc3c(c2)CC(=O)N3)ncc1C(F)(F)F)S(C)(=O)=O  band C
11  CCNCC(Cc1ccccc1)NC(=O)c1cc(Br)c(-c2ccnc3[nH]ccc23)s1.Cl.Cl (centres unmarked) [GSK1383280]  band B
12  CN1CCN(CCNc2nc3cc(Oc4ccc(NC(=O)Nc5cc(C(F)(F)F)ccc5F)cc4)ccc3[nH]2)CC1.Cl.Cl [GW768504]  band C
13  COC(=O)Nc1nc2cc(Oc3ccc(NC(=O)Nc4cc(C(F)(F)F)ccc4Cl)cc3)ccc2[nH]1.Cl [GW697465]  band C
14  CCn1c(-c2nonc2N)nc2cncc(CNC3CCNCC3)c21.Cl [SB-747651]  band A
15  CN(c1ccc2c(c1)nc(NCc1ccc(F)cc1)n2C)c1ccnc(Nc2ccc(CS(C)(=O)=O)cc2)n1.Cl [GW813244]  band B

* * *

- Tested on: PIP5K1A
- Test context: concentration: 1 μM,replicates: in singlicate; n = 1
Quantity: %Inh (%)

>>> df
                            chemical_string  quantity  observed_measurement
0  O=C(Nc1cccc(Oc2ccc3nccn3n2)c1)Nc1cccc(C(F)(F)F)c1      %Inh                     6
1     O=C(Nc1n[nH]c2cc(-c3ccco3)ccc12)C1CC1      %Inh                    45
2  Cn1ccc2ncnc(Oc3ccc(NC(=O)Nc4cccc(C(F)(F)F)c4)c(F)c3)c21      %Inh                     0
3  O=C(NCC1CC1)c1ccc(-c2cc(C(=O)NC3CC3)ccc2F)cc1      %Inh                    54
4  CN1CCN(CCNc2nc3cc(Oc4ccc(NC(=O)Nc5cc(C(F)(F)F)ccc5F)cc4)ccc3[nH]2)CC1.Cl.Cl      %Inh                    20
5  OCCn1cc(-c2cnc3nnn(Cc4ccc5ncccc5c4)c3n2)cn1      %Inh                     1
6  CN(c1ccc2c(c1)nc(NCc1ccc(F)cc1)n2C)c1ccnc(Nc2ccc(CS(C)(=O)=O)cc2)n1.Cl      %Inh                    12
